# measurement.notes: Hemolytic activity in human RBC at 0.5 mg/ml measured after 1 hr relative to control
# Assay type: ADME, tissue-based, Erythrocyte
# assay.context: red blood cells, read-out: Activity
measured.metric: hemolysis at 1 h, 0.5 mg/ml (%)
One number for each entry, in %.

Qu. What value of measured hemolysis at 1 h, 0.5 mg/ml is listed for CC(=O)O.C[C@@H]1[C@H](O)[C@@H](C)/C=C/C=C/CC/C=C/C=C/C=C/C=C/[C@H](O[C@@H]2O[C@H](C)[C@@H](O)[C@H](N)[C@@H]2O)C[C@@H]2O[C@](O)(C[C@@H](O)[C@H](O)CC[C@@H](O)C[C@@H](O)C[C@@H](O)CC(=O)O[C@H]1C)C[C@H](O)[C@H]2C(=O)NCCO ?
Ans. 62

Ref: ChEMBL document CHEMBL5029198
